Could you please report measured Observed Cmax, peak area for the items listed next?
Experiment: Clinical pharmacokinetics of ivermectin metabolites in blood of healthy volunteers
Type: in vivo, human
Settings: PK subject 5, 50 µL blood
One number for each entry, in counts.

# compound, unit.tag, Observed Cmax, peak area
records = [
    ("CCC(C)C1OC2(CCC1C)CC1CC(CC=C(C)C(OC3CC(OC)C(OC4CC(O)C(O)C(C)O4)C(C)O3)C(C)C=CC=C3COC4C(O)C(CO)=CC(C(=O)O1)C34O)O2 (stereo not shown) [M4, 3″-O-desmethyl, 4-hydroxy-H2B1a]", "counts", "2.43E+03"),
]

Quick request: Observed Cmax, peak area for each listed item, please.
1. CCC(C)C1OC2(CCC1C)CC1CC(CC=C(C)C(OC3CC(OC)C(OC4CC(O)C(O)C(C)O4)C(C)O3)C(C)C=CC=C3COC4C(O)C(C)=CC(C(=O)O1)C34O)O2 (stereo not shown) [M1, 3″-O-desmethyl-H2B1a]
2. CCC(C)C1OC2(CCC1C)CC1CC(CC=C(C)C(OC3CC(OC)C(OC4CC(OC)C(O)C(C)O4)C(C)O3)C(C)C=CC=C3COC4C(O)C(CO)=CC(C(=O)O1)C34O)O2 (stereo not shown) [M2, 4-hydroxy-H2B1a]

Ans.
["9.52E+03", "9.63E+03"]

Qu. Need Observed Cmax, peak area of CC[C@H](C)[C@H]1O[C@]2(CC[C@@H]1CO)C[C@@H]1C[C@@H](C/C=C(\C)[C@@H](O[C@H]3C[C@H](OC)[C@@H](O)[C@H](C)O3)[C@@H](C)/C=C/C=C3\CO[C@@H]4[C@H](O)C(C)=C[C@@H](C(=O)O1)[C@]34O)O2 [M5, 24-hydroxy-H2B1a monosaccharide] , thanks.
Ans. 6.06E+02

====

Experiment: Clinical pharmacokinetics of ivermectin metabolites in blood of healthy volunteers
Format: in vivo, human
Conditions: mean of PK subjects 1-12, 50 µL blood
Would you mind telling me the reported Observed Cmax, peak area of each entry?
Answers are plain numbers, in counts.

Known results for compounds:
# compound, unit.tag, Observed Cmax, peak area
rows = [
    ("CCC(C)C1OC2(CCC1C)CC1CC(CC=C(C)C(OC3CC(OC)C(OC4CC(O)C(O)C(C)O4)C(C)O3)C(C)C=CC=C3COC4C(O)C(C)=CC(C(=O)O1)C34O)O2 (stereo not shown)", "counts", "1.56E+04"),
    ("CCC(C)C1OC2(CCC1C)CC1CC(CC=C(C)C(OC3CC(OC)C(OC4CC(O)C(O)C(C)O4)C(C)O3)C(C)C=CC=C3COC4C(O)C(CO)=CC(C(=O)O1)C34O)O2 (stereo not shown) [M4, 3″-O-desmethyl, 4-hydroxy-H2B1a]", "counts", "5.06E+03"),
    ("CC[C@H](C)[C@H]1O[C@]2(CC[C@@H]1CO)C[C@@H]1C[C@@H](C/C=C(\\C)[C@@H](O[C@H]3C[C@H](OC)[C@@H](O)[C@H](C)O3)[C@@H](C)/C=C/C=C3\\CO[C@@H]4[C@H](O)C(C)=C[C@@H](C(=O)O1)[C@]34O)O2 [M5, 24-hydroxy-H2B1a monosaccharide]", "counts", "7.92E+02"),
]

Kindly consider the entry below.
Qu. Report Observed Cmax, peak area for CCC(C)C1OC2(CCC1C)CC1CC(CC=C(C)C(OC3CC(OC)C(OC4CC(OC)C(O)C(C)O4)C(C)O3)C(C)C=CC=C3COC4C(O)C(CO)=CC(C(=O)O1)C34O)O2 (stereo not shown) [M2, 4-hydroxy-H2B1a] please.
Ans. 1.35E+04
